System: U2OS
Assay: drug sensitivity score (DSS) for viability; higher = more toxic; extreme values may be limits of the assay
Details: 72 h
measurement_kind: drug sensitivity score
Quick one: just the number, no unit, thanks!

COc1ccccc1Oc1c(NS(=O)(=O)c2ccc(C)cn2)nc(-c2ccncc2)nc1OC [SPP301] = 0

Exercise: If you can, please state the reported drug sensitivity score value of `O=S(=O)(c1ccccc1)N(CC(F)(F)F)c1ccc(C(O)(C(F)(F)F)C(F)(F)F)cc1` .
Solution: 0

Exercise: Which drug sensitivity score value is on record for COc1ccccc1OCC(O)CO (stereo unspecified) [guaifenesin] ?
Solution: 0

Exercise: Look up drug sensitivity score: NS(=O)(=O)c1cc2c(cc1Cl)NC(C1CC3C=CC1C3)NS2(=O)=O (stereo unspecified) [cyclothiazide]
Solution: 0

Exercise: Which drug sensitivity score is reported for this molecule? NC(=O)C1CCCc2c1[nH]c1ccc(Cl)cc21 (stereo unspecified) [EX-527]
Solution: 0

Exercise: Please look up its drug sensitivity score: O=C1c2c(O)cccc2C([C@@H]2O[C@H](CO)[C@@H](O)[C@H](O)[C@H]2O)c2cc(CO)cc(O)c21 (stereo partly specified) [aloin]
Solution: 0

Exercise: Item under review: OC[C@H]1NC[C@@H](O)[C@@H](O)[C@@H]1O [1-deoxymannojirimycin] . Reported drug sensitivity score?
Solution: 0

Exercise: Consider the molecule shown here: CCOC(=O)C1=C[C@]2(CC)CCCN3CCc4c(n1c1ccccc41)[C@@H]32 [vinpocetine] What is its recorded drug sensitivity score?
Solution: 0
